system: HepG2; assay: cytotoxicity call (relative viability < 0.9); conditions: 10 µM
Out of some 39,000 compounds screened, about 3,300 (8.5%) were called active. The list comes from a sample in which actives are over-represented; it also holds close analogues and randomly drawn compounds.
Select the matching outcome among active, inactive

Query: Call for entry Cc1ccc(S(=O)(=O)Nc2ccc3c(c2)C(=O)N([C@H](C)CO)C[C@@H](C)[C@H](CN(C)S(=O)(=O)c2ccc(Cl)cc2)OCCCC[C@@H](C)O3)cc1 :
Reply: active

Query: # iterate: Cc1ccc(S(=O)(=O)Nc2ccc3c(c2)C(=O)N([C@@H](C)CO)C[C@@H](C)[C@@H](CN(C)S(=O)(=O)c2ccc(Cl)cc2)OCCCC[C@@H](C)O3)cc1
Reply: inactive

Further cases:
Query: Call for entry C[C@@H]1CN([C@H](C)CO)S(=O)(=O)c2ccc(C3=CCCCC3)cc2O[C@H]1CN(C)S(=O)(=O)c1cn(C)cn1 :
Reply: inactive

Query: # iterate: O=C1OCCN/C1=C/C(=O)c1ccccc1
Reply: active

Query: # iterate: CC(C)(C)c1c(C(C)(C)C)c1=O
Reply: inactive

Query: # iterate: COc1ccc2c3c([nH]c2c1)[C@@H](CO)N(C[C@]13CN(CCc2ccccc2)C1)C(=O)CN1CCOCC1
Reply: inactive

Query: # iterate: C[C@H]1CN([C@@H](C)CO)C(=O)Cc2cc(NC(=O)Nc3ccc(C(F)(F)F)cc3)ccc2O[C@@H]1CN(C)Cc1ccc(Cl)c(Cl)c1
Reply: inactive

Query: # iterate: COc1cc2c(cc1OC)C1Cc3ccc(OC)c(OC)c3CN1CC2 (stereo not drawn)
Reply: inactive

Query: # iterate: C[C@@H]1CN([C@H](C)CO)C(=O)Cc2cc(NC(=O)Nc3ccc(C(F)(F)F)cc3)ccc2O[C@@H]1CN(C)Cc1ccc(Cl)c(Cl)c1
Reply: active
